Test system: HEK293T cells
Test: Simultaneous whole-cell patch clamp electrophysiology and fluorescence in HEK cells (brightness, voltage sensitivity, speed)
Assay type: cell-based
Conditions: HEK cells
measurement.name: voltage sensitivity (ΔF/F per 100 mV) (%)

molecule="Arch D95N: Archaerhodopsin 3 D95N mutant, non-pumping voltage indicator of US 2013/0224756 (protein) MDPIALQAGYDLLGDGRPETLWLGIGTLLMLIGTFYFLVRGWGVTDKDAREYYAVTILVPGIASAAYLSMFFGIGLTEVTVGGEMLDIYYARYANWLFTTPLLLLDLALLAKVDRVTIGTLVGVDALMIVTGLIGALSHTAIARYSWWLFSTICMIVVLYFLATSLRSAAKERGPEVASTFNTLTALVLVLWTAYPILWIIGTEGAGVVGLGIETLLFMVLDVTAKVGFGFILLRSRAILGDTEAPEPSAGADVSAAD" unit_tag=% numeric_value=60
